Each entry below carries its recorded pEC50.
# assayed_system: JAK2 (Homo sapiens, UniProt O60674)
# Construct: All four purified enzymes contain only the catalytic domain; His (N)
# Sequence (O60674 849-1124 limits assumed): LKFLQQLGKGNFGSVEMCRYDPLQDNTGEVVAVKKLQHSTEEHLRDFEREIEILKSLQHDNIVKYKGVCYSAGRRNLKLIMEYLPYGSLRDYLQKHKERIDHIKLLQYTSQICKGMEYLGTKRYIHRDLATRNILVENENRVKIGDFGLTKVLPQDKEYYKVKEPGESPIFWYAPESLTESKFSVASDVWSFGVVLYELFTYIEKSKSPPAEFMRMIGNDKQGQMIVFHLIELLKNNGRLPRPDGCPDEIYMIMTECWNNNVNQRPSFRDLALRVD
# assay_summary: JAK2 kinase assay (HTRF, inhibition of phosphorylation of a synthetic peptide)
# condition_parameters: catalytic domain, His-tag; 4 μM ATP (Km); read-out: JAK2 kinase inhibitory activity (EC50)
pEC50: −log10 of the molar value.

smiles_input: Cc1cc(CC(=O)N2CCN(c3ncnc4[nH]ccc34)CC3(CC3)C2)on1
pEC50: > 7.00

Entry `N#Cc1cccc(CC(=O)N2CCN(c3ncnc4[nH]ccc34)CC3(CC3)C2)c1` has what pEC50?
> 7.00

Consider next the compound `O=C(c1cc2ccccc2s1)N1CCN(c2ncnc3[nH]ccc23)CC2(CC2)C1` in the same way.
6.00 to 7.00

Consider next the compound `Cc1cnc(C(=O)N2CCN(c3ncnc4[nH]ccc34)CC3(CC3)C2)s1` in the same way.
6.00 to 7.00

Consider next the compound `CS(=O)(=O)c1ccc(CC(=O)N2CCN(c3ncnc4[nH]ccc34)CC3(CC3)C2)cc1` in the same way.
> 7.00

Consider next the compound `O=C(c1ccno1)N1CCN(c2ncnc3[nH]ccc23)CC2(CC2)C1` in the same way.
6.00 to 7.00

Consider next the compound `N#Cc1cc(CC(=O)N2CCN(c3ncnc4[nH]ccc34)CC3(CC3)C2)ccc1F` in the same way.
> 7.00

Consider next the compound `Cc1nnc(C(=O)N2CCCN(c3ncnc4[nH]ccc34)CC23CC3)[nH]1` in the same way.
6.00 to 7.00

Consider next the compound `Cc1ccccc1C(=O)N1CCCN(c2ncnc3[nH]ccc23)CC12CC2` in the same way.
6.00 to 7.00

---

# assayed_system: JAK1 (Homo sapiens, UniProt P23458)
# Construct: JAK1 (aa 850-1154) and TYK2 (aa 871-1187) are expressed with an N-terminally fused GST-tag; GST (N)
# Sequence (P23458 850-1154): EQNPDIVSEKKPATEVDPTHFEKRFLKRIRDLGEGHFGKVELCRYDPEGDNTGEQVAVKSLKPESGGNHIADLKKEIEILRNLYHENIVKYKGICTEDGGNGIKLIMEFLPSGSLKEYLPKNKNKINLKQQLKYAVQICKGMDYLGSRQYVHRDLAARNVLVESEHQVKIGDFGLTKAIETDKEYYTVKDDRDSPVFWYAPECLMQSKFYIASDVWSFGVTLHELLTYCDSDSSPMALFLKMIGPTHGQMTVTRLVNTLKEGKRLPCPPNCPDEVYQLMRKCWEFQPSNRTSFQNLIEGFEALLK
# assay_summary: JAK1 kinase assay (HTRF, inhibition of phosphorylation of a synthetic peptide)
# condition_parameters: catalytic domain aa 850-1154, GST-tag; 7 μM ATP (Km); read-out: JAK1 kinase inhibitory activity (EC50)
Each entry below carries its recorded EC50.

smiles_input: N#CCCC(=O)N1CCN(c2ncnc3[nH]ccc23)CC2(CC2)C1
EC50: < 100 nM
--
smiles_input: O=C(CN1CCOC1=O)N1CCN(c2ncnc3[nH]ccc23)CC2(CC2)C1
EC50: 100 to 1000 nM
--
smiles_input: N#Cc1cccc(CC(=O)N2CCN(c3ncnc4[nH]ccc34)CC3(CC3)C2)c1
EC50: 100 to 1000 nM
--
smiles_input: Cc1ccc(S(=O)(=O)N2CCN(c3ncnc4[nH]ccc34)CC3(CC3)C2)cc1
EC50: 100 to 1000 nM

// next item, EC50 requested
Observed EC50 on JAK1 (Homo sapiens, UniProt P23458) for `O=C(CN1C(=O)CSC1=O)N1CCN(c2ncnc3[nH]ccc23)CC2(CC2)C1` , please.
< 100 nM

---

# assayed_system: JAK2 (Homo sapiens, UniProt O60674)
# Construct: All four purified enzymes contain only the catalytic domain; His (N)
# assay_summary: JAK2 kinase assay (HTRF, inhibition of phosphorylation of a synthetic peptide)
# condition_parameters: catalytic domain, His-tag; 4 μM ATP (Km); read-out: JAK2 kinase inhibitory activity (EC50)
quantity_kind: EC50

Worked cases, answers included:
compound: NS(=O)(=O)c1csc(C(=O)N2CCN(c3ncnc4[nH]ccc34)CC3(CC3)C2)c1
quantity_kind: EC50
value_observed: < 100 nM
//
compound: N#Cc1ccc(C(F)(F)C(=O)N2CCN(c3ncnc4[nH]ccc34)CC3(CC3)C2)cc1
quantity_kind: EC50
value_observed: < 100 nM
//
compound: CC(C)(C#N)C(=O)N1CCN(c2ncnc3[nH]ccc23)CC2(CC2)C1
quantity_kind: EC50
value_observed: 100 to 1000 nM
//
compound: O=C(c1cc2c(s1)CCC2)N1CCN(c2ncnc3[nH]ccc23)CC2(CC2)C1
quantity_kind: EC50
value_observed: 100 to 1000 nM
//
compound: Cc1cc(C(=O)N2CCCN(c3ncnc4[nH]ccc34)CC23CC3)no1
quantity_kind: EC50
value_observed: < 100 nM
//
compound: Cn1cc(S(N)(=O)=O)cc1C(=O)N1CCN(c2ncnc3[nH]ccc23)CC2(CC2)C1
quantity_kind: EC50
value_observed: 100 to 1000 nM
//
compound: Cc1oncc1C(=O)N1CCCN(c2ncnc3[nH]ccc23)CC12CC2
quantity_kind: EC50
value_observed: 100 to 1000 nM
//
compound: O=C(C1CCCCC1)N1CCCN(c2ncnc3[nH]ccc23)CC12CC2
quantity_kind: EC50
value_observed: < 100 nM
//
compound: CC1CN(c2ncnc3[nH]ccc23)CC2(CC2)CN1C(=O)CC1CCCC1 (stereo not drawn)
quantity_kind: EC50
value_observed: 100 to 1000 nM
//
compound: Cc1cc(CC(=O)N2CCCN(c3ncnc4[nH]ccc34)CC23CC3)on1
quantity_kind: EC50
value_observed: 100 to 1000 nM

Entry `NS(=O)(=O)c1ccc(C(=O)N2CCN(c3ncnc4[nH]ccc34)CC3(CC3)C2)o1` has what EC50?
< 100 nM

Origin of the recorded values: patent US9586961B2
